SYSTEM: T1, Dahl S Dear S44/M74 variant (rat Dual Endothelin-1/Angiotensin II Receptor) (rat (Dahl S/JRHsd), UniProt D3ZGZ6 1-127)
T1 construct: It was assayed as membranes of transiently transfected Cos1 cells, and as rat kidney membranes on blots; also called Dahl S receptor; Cos1-S
T1 chain: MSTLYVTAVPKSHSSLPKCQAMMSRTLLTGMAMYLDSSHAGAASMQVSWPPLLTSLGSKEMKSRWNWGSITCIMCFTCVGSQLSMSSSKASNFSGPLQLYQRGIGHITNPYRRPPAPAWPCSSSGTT
TEST: saturation radioligand binding, Cos1 membranes; KL, low affinity binding site; the column head says nM, and the unit is doubtful
No end group written: not given here. *: point of attachment. 125I = [125I]*
READOUT: pKd
// pKd: -log10(molar conc.)

The reported pKd of the binder CSCSSLMDKECVY(125I)FCHLDIIW (peptide, UniProt P05305 53-73, looked up, ends and bridges not checked, mature; Radiolabelled ligand; also called ET-1) [[125I]Tyr13-endothelin-1] was 9.35
